biological target: Solute carrier family 2, facilitated glucose transporter member 1 (Homo sapiens) (UniProt P11166); assay: ST_JUDE_LEISH: Cytotoxicity at 2uM final concentration against transgenic Leishmania Mexicana promastigotes LmGLUT1 that are glucose transport deficient and complemented with the human glucose transporter GLUT1. Activity is measured by DNA content using SYBR green in vitro; format: functional
Sequence (P11166 whole entry): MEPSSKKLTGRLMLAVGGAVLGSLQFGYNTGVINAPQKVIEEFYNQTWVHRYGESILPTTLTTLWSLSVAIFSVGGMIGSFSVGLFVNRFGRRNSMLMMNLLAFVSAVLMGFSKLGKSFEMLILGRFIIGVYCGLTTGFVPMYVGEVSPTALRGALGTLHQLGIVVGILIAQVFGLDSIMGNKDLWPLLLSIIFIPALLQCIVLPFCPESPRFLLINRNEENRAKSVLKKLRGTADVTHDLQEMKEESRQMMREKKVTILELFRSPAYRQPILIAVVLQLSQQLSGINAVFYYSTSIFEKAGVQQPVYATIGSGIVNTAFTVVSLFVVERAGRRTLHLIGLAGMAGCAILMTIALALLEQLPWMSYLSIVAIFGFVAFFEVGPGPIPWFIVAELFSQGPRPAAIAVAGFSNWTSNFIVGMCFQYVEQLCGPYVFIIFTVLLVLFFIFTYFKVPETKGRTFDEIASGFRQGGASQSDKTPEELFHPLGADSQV
quantityKind: inhibition (%)
State the answer as a number, implicitly in %.

C=CCc1cc(Cc2cnc(N)nc2N)c2ccc(C)nc2c1OC
8.65
COc1cc2nc(Cl)nc(Nc3ccncc3)c2cc1OC
0.52
CC(=O)c1cccc(S(=O)(=O)NCCCNc2nc3cc(C)cc(C)c3cc2C#N)c1
-0.68
COc1cc2c(cc1OC)-c1cc(=Nc3c(C)cc(C)cc3C)n(C)c(=O)n1CC2
0.22
O=C(CN1CCC(NCc2cnc(-c3ccc(Cl)cc3)[nH]2)CC1)N1CCc2ccccc21
-1.03

inhibition lookup needed for COc1ccc(/N=[N+](\[O-])c2ccccc2/[N+]([O-])=N/c2ccc(OC)cc2)cc1 , thanks. 1.29

inhibition lookup needed for CCC1CN2CCc3c([nH]c4ccccc34)C2CC1CC1NCCc2cc(OC)c(OC)cc21 (centres undefined) , thanks. 1.68

inhibition lookup needed for CCN(CC)CCN(Cc1ccc(-c2ccc(C(F)(F)F)cc2)cc1)C(=O)Cn1c(CCc2c(F)cccc2F)nc(=O)c2ccccc21 , thanks. 4.96

inhibition lookup needed for CN1CCC(c2c[nH]c3ccc(NC(=O)Nc4ccc(-c5ccncc5)cc4Cl)cc23)CC1 , thanks. 1.45
